Each entry below lists one item and its recorded pIC50 value.
# procedure.summary: Inhibition of trypsin-like activity of 20S proteasome in lymphoblastoid cells after 30 mins
# Assay type: cell-based, Homo sapiens
pIC50: −log10 of the molar value.
quantity.name: pIC50

1. CCOC(=O)/C=C/[C@H](CCC(N)=O)NC(=O)[C@@H]1Cc2ccccc2CN1C(=O)[C@H](CC(C)C)NC(=O)c1cccc(O)c1C :: 5.23
2. CCOC(=O)/C=C/[C@H](CCC(N)=O)NC(=O)[C@H](CO)NC(=O)[C@@H](NC(=O)c1cccc(O)c1C)C(C)C :: 7.25
3. CCOC(=O)/C=C/[C@H](CC(C)C)NC(=O)[C@@H]1Cc2ccccc2CN1C(=O)[C@@H](NC(=O)c1cccc(O)c1C)C(C)C :: 5.07
4. CCOC(=O)/C=C/[C@H](CC(C)C)NC(=O)[C@H](CO)NC(=O)[C@@H](NC(=O)c1cccc(O)c1C)C(C)C :: 7.48
5. CCOC(=O)/C=C/[C@H](CCC(N)=O)NC(=O)[C@H](CO)NC(=O)[C@@H]1Cc2ccccc2CN1C(=O)c1cccc(O)c1C :: 6.46
6. CCOC(=O)/C=C/[C@H](CCC(N)=O)NC(=O)[C@H](CC(C)C)NC(=O)[C@@H]1Cc2ccccc2CN1C(=O)c1cccc(O)c1C :: 6.36
7. CCOC(=O)/C=C/[C@H](CC(C)C)NC(=O)[C@H](CC(C)C)NC(=O)[C@@H]1Cc2ccccc2CN1C(=O)c1cccc(O)c1C :: 6.80
8. CCOC(=O)/C=C/[C@H](CCC(N)=O)NC(=O)[C@H](CC(C)C)NC(=O)[C@H](CC(C)C)NC(=O)c1cccc(O)c1C :: 6.84
9. CCOC(=O)/C=C/[C@H](CC(C)C)NC(=O)[C@H](CO)NC(=O)[C@@H]1Cc2ccccc2CN1C(=O)c1cccc(O)c1C :: 7.01
10. CCOC(=O)/C=C/[C@H](CCC(N)=O)NC(=O)[C@@H]1Cc2ccccc2CN1C(=O)[C@@H](NC(=O)c1cccc(O)c1C)C(C)C :: 5.63

Each recorded value in this set is attributed to ChEMBL document CHEMBL1147181.
